These data points were gathered from patent US8044198B2.

Target: SIRT1 (Homo sapiens)
Test: SIRT1 mass spectrometry (MS) based deacetylation assay
Format: biochemical
Settings: SIRT1 activation, mass spectrometry assay; read-out: ED50 MS ASSAY
pEC50: −log10 of the molar value.
QUANTITY NAME: pEC50

Worked examples, 6 compounds total:
COc1ccc(C(=O)Nc2cc(C(=O)NCCN(C)C)cc(-c3nc4ncccc4o3)c2)cc1OC	4.30 to 5.30
COc1ccc(C(=O)Nc2ccccc2-c2cn3cc(CN(C)C)sc3n2)cc1OC	4.30 to 5.30
CN(C)c1cccc(C(=O)Nc2ccccc2-c2nc3cnccc3o2)c1	> 5.30
COc1cc(C(=O)Nc2cccc(-c3nc4cnccc4s3)c2)cc(OC)c1OC	4.30 to 5.30
COC(=O)c1cc(NC(=O)c2cc(OC)c(OC)c(OC)c2)cc(-c2nc3ccncc3s2)c1	> 5.30
COc1ccc(C(=O)Nc2ccccc2-c2cccs2)c(OC)c1	4.30 to 5.30

Consider the compound COc1ccc(C(=O)Nc2ccccc2-c2cnc3ccccc3c2)cc1OC and give its measured pEC50.
4.30 to 5.30

Consider the compound COc1cc(C(=O)Nc2ccccc2-c2cn3cc(CN(C)C)sc3n2)cc(OC)c1OC and give its measured pEC50.
> 5.30

Consider the compound COc1ccc(C(=O)Nc2cc(-c3nc4ncccc4o3)ccn2)cc1OC and give its measured pEC50.
4.30 to 5.30

Consider the compound COc1cc(C(=O)Nc2cncc(-c3nc4ncccc4o3)c2)cc(OC)c1OC and give its measured pEC50.
4.30 to 5.30

Consider the compound COc1cc(C(=O)N2CCCN(c3nc4ccccc4o3)CC2)cc(OC)c1OC and give its measured pEC50.
< 3.82

Consider the compound COc1cc(C(=O)Nc2cc(-c3nc4ncccc4o3)ccn2)cc(OC)c1OC and give its measured pEC50.
4.30 to 5.30

Consider the compound O=C(O)Cc1csc2nc(-c3ccccc3NC(=O)c3cnc4ccccc4n3)cn12 and give its measured pEC50.
4.30 to 5.30

Consider the compound COc1cccc(OC)c1C(=O)Nc1ccc(-c2nc3ncccc3o2)cc1 and give its measured pEC50.
< 3.82

Consider the compound COc1cc(OC)cc(C(=O)Nc2ccccc2-c2nc3cc(CN4CCN(C)CC4)cnc3s2)c1 and give its measured pEC50.
> 5.30

Consider the compound COc1ccc(C(=O)Nc2cccc(-c3cn4ccc(C)cc4n3)c2)c(OC)c1 and give its measured pEC50.
4.30 to 5.30

Consider the compound CN(C)c1cccc(C(=O)Nc2cccc(-c3nc4nc(CN5CCNCC5)ccc4o3)c2)c1 and give its measured pEC50.
4.30 to 5.30

* * *

Target: SIRT1 (Homo sapiens)
Sequence (Q96EB6 1-747): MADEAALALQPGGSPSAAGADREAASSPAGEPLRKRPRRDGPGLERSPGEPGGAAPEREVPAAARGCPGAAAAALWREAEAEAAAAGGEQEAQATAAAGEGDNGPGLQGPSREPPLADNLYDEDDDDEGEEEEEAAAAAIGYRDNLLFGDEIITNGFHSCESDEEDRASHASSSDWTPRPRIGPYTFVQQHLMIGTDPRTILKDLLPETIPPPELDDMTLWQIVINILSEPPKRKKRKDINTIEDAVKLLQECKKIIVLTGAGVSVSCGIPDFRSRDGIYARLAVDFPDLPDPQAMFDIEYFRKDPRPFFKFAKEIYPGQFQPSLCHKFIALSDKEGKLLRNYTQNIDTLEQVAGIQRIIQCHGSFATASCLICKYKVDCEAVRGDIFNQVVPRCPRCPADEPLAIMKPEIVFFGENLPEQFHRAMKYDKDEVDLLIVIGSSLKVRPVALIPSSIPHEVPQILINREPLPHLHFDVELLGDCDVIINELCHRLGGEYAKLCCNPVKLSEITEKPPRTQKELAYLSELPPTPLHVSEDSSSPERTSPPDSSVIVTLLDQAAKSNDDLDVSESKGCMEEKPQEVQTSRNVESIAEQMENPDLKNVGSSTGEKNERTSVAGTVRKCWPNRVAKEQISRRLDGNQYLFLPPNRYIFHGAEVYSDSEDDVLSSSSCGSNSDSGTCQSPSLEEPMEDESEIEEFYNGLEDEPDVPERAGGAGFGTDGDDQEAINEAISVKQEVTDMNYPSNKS
Test: SIRT1 mass spectrometry (MS) based deacetylation assay
Format: biochemical
Conditions: SIRT1 activation, mass spectrometry assay; read-out: ED50 MS ASSAY
pEC50: −log10 of the molar value.
QUANTITY NAME: pEC50

Worked examples, 3 molecules total:
COC(=O)c1ccc(-n2cncn2)c(NC(=O)c2ccc(OC)c(OC)c2)c1	4.30 to 5.30
Cc1nn(-c2ccccc2)nc1C(=O)Nc1ccccc1-c1nc2ccncc2s1	4.30 to 5.30
COc1cc(C(=O)Nc2cccc(-c3nc4sccn4n3)c2)cc(OC)c1OC	4.30 to 5.30

Record COc1ccc(C(=O)Nc2cccc(-c3nc4ncccc4s3)c2)c(OC)c1 : what is its pEC50 with SIRT1 (Homo sapiens)?
> 5.30

Record COc1ccc(C(=O)Nc2sccc2-c2nc3ccccc3s2)cc1OC : what is its pEC50 with SIRT1 (Homo sapiens)?
> 5.30

Record O=C(Nc1cccc(-c2nc3ccncc3s2)c1)Nc1ccc2c(c1)OCO2 : what is its pEC50 with SIRT1 (Homo sapiens)?
> 5.30

Record O=C(Nc1cccc(-c2nc3ccncc3s2)c1)c1cccnc1Cl : what is its pEC50 with SIRT1 (Homo sapiens)?
4.30 to 5.30

Record COc1cc(C(=O)Nc2ccccc2-c2cnc3ccccc3c2)cc(OC)c1OC : what is its pEC50 with SIRT1 (Homo sapiens)?
4.00 to 4.29

Record COc1ccc(C(=O)Nc2cccc(-c3csc(-c4ccccc4)n3)c2)cc1OC : what is its pEC50 with SIRT1 (Homo sapiens)?
4.30 to 5.30

Record O=C(Nc1ccccc1-c1cn2c(CN3CCNCC3)csc2n1)c1cccs1 : what is its pEC50 with SIRT1 (Homo sapiens)?
4.30 to 5.30

Record CC(C)(C)OC(=O)CNCc1csc2nc(-c3ccccc3NC(=O)c3cnc4ccccc4n3)cn12 : what is its pEC50 with SIRT1 (Homo sapiens)?
4.30 to 5.30

Record COc1cc(C(=O)Nc2ccccc2-n2cccn2)cc(OC)c1OC : what is its pEC50 with SIRT1 (Homo sapiens)?
4.00 to 4.29

* * *

Biological target: SIRT1 (Homo sapiens, UniProt Q96EB6)
Assay: SIRT1 mass spectrometry (MS) based deacetylation assay
Format: biochemical
Conditions: SIRT1 activation, mass spectrometry assay; read-out: ED50 MS ASSAY
pEC50: −log10 of the molar value.
Below, each entry is listed with its recorded pEC50.

Worked examples, 5 molecules total:
Cc1c(C(=O)Nc2ccccc2-c2cn3c(CN4CCNCC4)csc3n2)oc2ccccc12 [Compound 442]	> 5.30
O=C(Nc1ccccc1-c1cn2c(CN3CCNCC3)csc2n1)c1cccc(SC(F)F)c1 [Compound 737]	> 5.30
CN(C)c1cccc(C(=O)Nc2ccccc2-c2cn3ccccc3n2)c1 [Compound 268]	> 5.30
O=C(Nc1ccccc1-c1cn2c(CN3CCNCC3)csc2n1)c1cc(F)cc(F)c1 [Compound 695]	> 5.30
CN(C)c1cccc(C(=O)Nc2ccc(-c3nc4ncccc4s3)cc2)c1 [Compound 196]	4.30 to 5.30

Record COc1cc(C(=O)Nc2ccccc2-c2cn3cc(CN4CCNCC4)sc3n2)cc(OC)c1OC [Compound 271] : what is its pEC50 with SIRT1 (Homo sapiens, UniProt Q96EB6)?
> 5.30

Record COc1ccc(C(=O)Nc2ccccc2-c2nc3ccccn3c2CN2CCNCC2)cc1OC [Compound 364] : what is its pEC50 with SIRT1 (Homo sapiens, UniProt Q96EB6)?
< 3.82

Record COc1cc(C(=O)Nc2cccc(-c3nc4cnccc4o3)c2)cc(OC)c1OC [Compound 298] : what is its pEC50 with SIRT1 (Homo sapiens, UniProt Q96EB6)?
4.30 to 5.30

Record O=C(Nc1ccccc1-c1cn2c(CN3CCNCC3)csc2n1)c1cccc(-c2ccccc2)c1 [Compound 710] : what is its pEC50 with SIRT1 (Homo sapiens, UniProt Q96EB6)?
> 5.30

Record O=C(Nc1cccc(-c2nc3ncccc3o2)c1)c1ccccc1 [Compound 56] : what is its pEC50 with SIRT1 (Homo sapiens, UniProt Q96EB6)?
4.30 to 5.30

Record COc1cc(C)ccc1C(=O)Nc1cccc(-c2nc3cccnc3[nH]2)c1 [Compound 182] : what is its pEC50 with SIRT1 (Homo sapiens, UniProt Q96EB6)?
> 5.30

Record COc1ccc(C(=O)Nc2cccc(-c3nc4cnccc4o3)c2)c(OC)c1OC [Compound 343] : what is its pEC50 with SIRT1 (Homo sapiens, UniProt Q96EB6)?
4.30 to 5.30

Record Cc1ccc(C(=O)Nc2ccccc2-c2nc3cc(CN4CCOCC4)cnc3s2)cc1C [Compound 684] : what is its pEC50 with SIRT1 (Homo sapiens, UniProt Q96EB6)?
4.30 to 5.30

Record O=C(Nc1ccccc1-c1nc2ccncc2s1)c1ccc(Oc2ccccc2)nc1 [Compound 392] : what is its pEC50 with SIRT1 (Homo sapiens, UniProt Q96EB6)?
4.30 to 5.30

Record COc1ccc(C(=O)Nc2cccc(-c3nc4cc(C)ccc4[nH]3)c2)cc1OC [Compound 117] : what is its pEC50 with SIRT1 (Homo sapiens, UniProt Q96EB6)?
4.30 to 5.30

Record COc1ccc(C(=O)Nc2ccc(-c3nc4cccnc4[nH]3)cc2)c(OC)c1 [Compound 151] : what is its pEC50 with SIRT1 (Homo sapiens, UniProt Q96EB6)?
< 3.82

Record COc1cc(C)ccc1C(=O)Nc1cccc(-c2nc3ncccc3o2)c1 [Compound 51] : what is its pEC50 with SIRT1 (Homo sapiens, UniProt Q96EB6)?
4.30 to 5.30

Record CN(C)c1cccc(C(=O)Nc2cccc(-c3nc4ncccc4o3)n2)c1 [Compound 64] : what is its pEC50 with SIRT1 (Homo sapiens, UniProt Q96EB6)?
4.30 to 5.30

Record CN(C)Cc1cc(NC(=O)c2cccc(N(C)C)c2)cc(-c2nc3ncccc3o2)c1 [Compound 157] : what is its pEC50 with SIRT1 (Homo sapiens, UniProt Q96EB6)?
< 3.82

Record Cc1nc(-c2cccc(NC(=O)c3cccc(N(C)C)c3)c2)cs1 [Compound 79] : what is its pEC50 with SIRT1 (Homo sapiens, UniProt Q96EB6)?
< 3.82
